Target: T1, human Claudin 18.2 (CLDN18.2) (human, UniProt P56856-2 1-261)
T1 construct: whole, on cells; recombinantly expressed on CHO, HEK293, NCI-N87, NUGC4 or PANC-1 cells; also called CHO-CLDN18.2
Assay: FACS on CHO-CLDN18.2 cells
pEC50: −log10 of the molar value.

{"Binder": "364D1A7 (mouse hybridoma antibody) (antibody, V domains shown, purified mouse IgG from hybridoma) VH: DVQLVESGGGLVQPGGSRKLSCAASGFTFSSFGMHWVRQAPEKGLEWVAYISSGSGSIYYADTVKGRFTLSRDNPKNTLFLQMTSLRSEDTAIYYCATSYYYGNALEYWGQGTSVTVSS VL: DVVLTQSPSSLTVTEGEKVSMSCKSSQSLFNSGNQKNYLTWYQQKPGQTPTLLIYWASTRKSGVPDRFTGSGSGTDFTLTINTVQAEDLAVYYCQNVYSYPLTFGAGTKLDLK", "pEC50": 8.28}
{"Binder": "413H9F8 (mouse hybridoma antibody) (antibody, V domains shown, purified mouse IgG from hybridoma) VH: DVQLVESGGGSVQPGGSRRLSCAASGFTFSSFGMHWVRQAPEKGLEWVAYISSGSSPIYYVDKLKGRFTVSRDNPKNTLFLQMTSLRSEDTAMYYCARAGYAVRNALDYWGQGTSITVSS VL: DIVMTQSPSSLSVSVGEKVTLSCKSSQSLLNSGNQKNYLAWYQQKTGQPPKLLIYGASTRESGVPDRFIGSGSGTDFTLTISSVQAEDLAVYFCQNDLFYPLTFGAGTKLELK", "pEC50": 8.08}
{"Binder": "Ms175D10 (antibody, V domains shown) VH: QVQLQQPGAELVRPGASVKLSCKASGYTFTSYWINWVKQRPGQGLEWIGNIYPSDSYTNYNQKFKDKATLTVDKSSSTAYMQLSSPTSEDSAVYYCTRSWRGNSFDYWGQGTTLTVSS VL: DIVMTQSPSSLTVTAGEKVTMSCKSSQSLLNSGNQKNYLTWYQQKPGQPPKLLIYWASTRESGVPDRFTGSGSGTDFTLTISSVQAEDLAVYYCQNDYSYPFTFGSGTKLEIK", "pEC50": 8.43}
{"Binder": "357B8F8 (mouse hybridoma antibody) (antibody, V domains shown, purified mouse IgG from hybridoma) VH: QVQLKESGPGLVAPSQSLSITCTVSGFSLTSYGVHWVRQPPGKGLEWLGVIWPGGNTNYNSALMSRLSISKDNSKSQVFLKMNSLQTDDTAMYYCARDRRLAMDYWGQGTSVTVSS VL: DIVMTQSPSSLTVTAGEKVTMTCKSSQSLLNSGNQKNYLTWYQQKPGQPPKLLIYWASTRESGVPDRFTGSGSGTDFTLTISILQAEDLAVYYCQNDYSYPFTFGSGTKLEIK", "pEC50": 8.49}
